- Test system: HL-60
- MEASUREMENT_DESCRIPTION: Growth inhibition of human HL60 cells after 72 hrs by MTT assay
- Type: functional, cell-based
- ASSAY_SETUP: HL-60, 72 h
pIC50: −log10 of the molar value.
Assign class by pIC50: not lower than 5 means y; lower than 5 means n.

Query block: Decide: is the reported value of pIC50 for `CCO[C@@H]1C=CC(=O)[C@@H](CO)O1` equal to or greater than 5?
Result block: y

Query block: Tell me whether pIC50 is at least 5 here: `O=C1C=C[C@@H](OC2CCCC2)O[C@@H]1CO`
Result block: y

Query block: Say whether `O=C1C=C[C@@H](OCc2ccccc2)O[C@@H]1CO` shows pIC50 of 5 or more.
Result block: n

Query block: Determine whether this compound has pIC50 no lower than 5: `C#CCCO[C@@H]1C=CC(=O)[C@@H](CO)O1`
Result block: y

* * *

- System: HL-60
- MEASUREMENT_DESCRIPTION: Growth inhibition of human HL60 cells after 72 hrs by MTT assay
- Assay type: functional, cell-based
- ASSAY_SETUP: HL-60, 72 h
REPORTED_METRIC: pIC50
When answering, recall that pIC50 equals minus log10 of the concentration in mol/L, and write that number alone.

Quick note, pIC50 for `C=CCO[C@@H]1C=CC(=O)[C@@H](CO)O1` landed at 5.31

`C#CCO[C@@H]1C=CC(=O)[C@@H](CO)O1` has a reported pIC50 of 5.03

Per the record, `O=C1C=C[C@@H](OC2CCCCC2)O[C@@H]1CO` has pIC50 of 4.88

pIC50 reading for `CCCO[C@@H]1C=CC(=O)[C@@H](CO)O1` : 4.97
